- TARGET_ENTITY: Tyrosine-protein phosphatase non-receptor type 1 (Homo sapiens)
- EXPERIMENT_SUMMARY: Inhibition of PTP1B using fluorescein 3,6 diphosphate as substrate at 100 uM measured for 1 hr in presence of 1 mM dithiothreitol
METRIC: inhibition (%)

(a) O=C1N=C(NCCCCCCCNC2=NC(=O)/C(=C/C=C/c3ccccc3)S2)S/C1=C\C=C\c1ccccc1
(b) O=C1N=C(NCCN2CCN(CCNC3=NC(=O)/C(=C/c4ccc5c(c4)OCO5)S3)CC2)S/C1=C\c1ccc(O)cc1
(c) CCCCCNC1=NC(=O)/C(=C/c2ccc(O)cc2)S1
Kindly provide a descending ordering of the above molecules based on their inhibition. Output spec: labels arranged per the requested ranking.
a, c, b
(a: 51%, c: 35%, b: 19%)

###

- TARGET_ENTITY: Tyrosine-protein phosphatase non-receptor type 1 (Homo sapiens)
- EXPERIMENT_SUMMARY: Inhibition of PTP1B using fluorescein 3,6 diphosphate as substrate at 100 uM measured for 1 hr in presence of 1 mM dithiothreitol
METRIC: inhibition (%)

(a) O=C1N=C(NCCCCCCCNC2=NC(=O)/C(=C/c3ccc(-c4ccccc4)o3)S2)S/C1=C\c1ccc(-c2ccccc2)o1
(b) O=C1N=C(NCCN2CCN(CCNC3=NC(=O)/C(=C/c4ccc5[nH]ncc5c4)S3)CC2)S/C1=C\c1ccc(O)cc1
(c) COc1cc(/C=C2\SC(NCCCCCCCNC3=NC(=O)/C(=C/c4cc(OC)c(O)c(OC)c4)S3)=NC2=O)cc(OC)c1O
(d) O=C1N=C(NCCCCCCCNC2=NC(=O)/C(=C/c3ccc4c(c3)OCO4)S2)S/C1=C\c1ccc2c(c1)OCO2
Kindly provide a descending ordering of the above molecules based on their inhibition. Output spec: labels arranged per the requested ranking.
a, d, b, c
(a: 50%, d: 30%, b: 18%, c: 2%)
